Biological target: T1, MBP-fused PDZ domain of MAST2 (human, UniProt Q6P0Q8 1104-1192)
T1 sequence (looked up): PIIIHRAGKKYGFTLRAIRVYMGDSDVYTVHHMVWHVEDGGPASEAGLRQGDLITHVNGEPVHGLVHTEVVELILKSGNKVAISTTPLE
Assay: SPR
Where no end group is shown, it is not given here.
measured_attribute: Kd (µM)
Kindly provide the numeric value in µM only, without the unit symbol.

Problem: Fill in Kd for record RSSRTRRETQL (not fully specified (N-terminus); also: biotinylated, position not given here) [biotinylated HPV16 E6 peptide]
Result: 2.5
